Origin of measurements: PubChem BioAssay AID1963836

tested on: 857933-349-R-J2-PDC complex spheroid viability; assay: Anticancer human tumor 857933-349-R-J2-PDC patient-derived colon adenocarcinoma cell line growth inhibition [POLQ]; settings: second compound 0.0316 µM; first compound 0.0316 µM; active compounds read low;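 further: spheroids exposed to compounds for seven days before readout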
Quick list: viability, T/C per entry.
Numbers only here, please. The scale is %.

Before answering, review these 3 worked examples.
• CC(C)n1c(=O)n(C)c2cnc3cc(F)c(-c4ccc(OCCCN5CCCCC5)nc4)cc3c21 + Cc1cccc(N(C)C(=O)C2C(O)CCN2c2nc(C)cc(C(F)(F)F)c2C#N)c1 = 106
• CCc1c2c(nc3ccc(O)cc13)-c1cc3c(c(=O)n1C2)COC(=O)[C@]3(O)CC + Cc1cccc(N(C)C(=O)C2C(O)CCN2c2nc(C)cc(C(F)(F)F)c2C#N)c1 = 36.5
• CCc1c2c(nc3ccc(O)cc13)-c1cc3c(c(=O)n1C2)COC(=O)[C@]3(O)CC + Nc1ccc(C#CCN(C(=O)Cc2ncc(C(F)(F)F)cc2C(F)(F)F)c2ccc(F)cc2)nn1 = 27.2

Any idea what its viability, T/C is? The molecule is C#Cc1c(F)ccc2cc(O)cc(-c3ncc4c(N5CC6CCC(C5)N6)nc(OCC56CCCN5CC(F)C6)nc4c3F)c12 (stereo not given) + COC1C(OC(N)=O)C(O)C(Oc2ccc3c(O)c(NC(=O)c4ccc(O)c(CC=C(C)C)c4)c(=O)oc3c2C)OC1(C)C
106

Given Cn1ncnc1[C@H]1c2n[nH]c(=O)c3cc(F)cc(c23)N[C@@H]1c1ccc(F)cc1 + Nc1ccc(C#CCN(C(=O)Cc2ncc(C(F)(F)F)cc2C(F)(F)F)c2ccc(F)cc2)nn1 , state its recorded viability, T/C.
95
